- target_or_test_system: UniProtKB P35218
- Sequence (P35218 39-305): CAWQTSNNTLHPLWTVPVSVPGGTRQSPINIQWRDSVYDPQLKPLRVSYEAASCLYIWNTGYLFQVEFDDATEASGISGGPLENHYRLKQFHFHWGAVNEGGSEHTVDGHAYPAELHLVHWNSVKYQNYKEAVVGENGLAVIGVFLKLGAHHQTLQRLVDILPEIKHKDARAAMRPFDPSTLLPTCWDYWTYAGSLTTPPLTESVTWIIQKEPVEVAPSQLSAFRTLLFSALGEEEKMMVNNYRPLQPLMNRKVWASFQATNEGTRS
- experiment_notes: Thermal shift assay (TSA), recombinant CAVA
- condition_set: 37 °C, pH 7.0, observed (not intrinsic)
measurement_name: pKd
Note: pKd values are expressed as the negative base-10 logarithm of concentration in M.

compound: NS(=O)(=O)c1ccc(NC(=O)Nc2ccc(F)cc2)cc1 [SLC-0111, reference compound]
pKd: 5.22
//
compound: NS(=O)(=O)c1c(F)c(F)c(S(=O)(=O)CCC(=O)Nc2ccc3c(c2)C(=O)OC32c3ccc(O)cc3Oc3cc(O)ccc32)c(NC2CCCCCCC2)c1F
pKd: 6.40

Lab note: next compound to report on.
Incoming: Query (compound): NS(=O)(=O)c1c(F)c(F)c(S(=O)(=O)CCC(=O)Nc2ccc3c(c2)C(=O)OC32c3ccc(O)cc3Oc3cc(O)ccc32)c(F)c1F ; field requested: pKd
Outgoing: 7.54

###

- target_or_test_system: catalytic domain of recombinant human CAIX (Homo sapiens, UniProt Q16790)
- Construct: Isozymes CAIX, CAXII, and CAXIV were the catalytic domains of the proteins; made in house; host or cells: mammalian cells
- experiment_notes: Thermal shift assay (TSA), recombinant CAIX catalytic domain
- Assay type: binding
- condition_set: TSA, 37 °C, pH 7.0, observed (not intrinsic); read-out: Kd CAIX
Kd: recorded values
Record the value in nM, omitting the unit from your answer.

Answered cases to consult:
molecule: NS(=O)(=O)c1c(F)c(F)c(S(=O)(=O)CCC(=O)Nc2ccc3c(c2)C(=O)OC32c3ccc(O)cc3Oc3cc(O)ccc32)c(NC2CCCCCCC2)c1F [GZ19-32]
target_or_test_system: catalytic domain of recombinant human CAIX (Homo sapiens, UniProt Q16790)
endpoint_unit: nM
Kd: 0.005
--
molecule: NS(=O)(=O)c1c(F)c(F)c(S(=O)(=O)CCC(=O)NCCCC(=O)Nc2ccc3c(c2)C(=O)OC32c3ccc(O)cc3Oc3cc(O)ccc32)c(NC2CCCCCCC2)c1F [GZ20-40]
target_or_test_system: catalytic domain of recombinant human CAIX (Homo sapiens, UniProt Q16790)
endpoint_unit: nM
Kd: 0.01
--
molecule: NS(=O)(=O)c1c(F)c(F)c(S(=O)(=O)CCC(=O)Nc2ccc3c(c2)C(=O)OC32c3ccc(O)cc3Oc3cc(O)ccc32)c(F)c1F [GZ19-31]
target_or_test_system: catalytic domain of recombinant human CAIX (Homo sapiens, UniProt Q16790)
endpoint_unit: nM
Kd: 1.7

Let us examine a further case.
Incoming: Quick one: Kd of NS(=O)(=O)c1c(F)c(F)c(S(=O)(=O)CCC(=O)O)c(NC2CCCCCCC2)c1F [GZ18-23] ?
Outgoing: 0.033

###

- target_or_test_system: CAVI (Homo sapiens, UniProt P23280)
- Sequence (P23280 18-308): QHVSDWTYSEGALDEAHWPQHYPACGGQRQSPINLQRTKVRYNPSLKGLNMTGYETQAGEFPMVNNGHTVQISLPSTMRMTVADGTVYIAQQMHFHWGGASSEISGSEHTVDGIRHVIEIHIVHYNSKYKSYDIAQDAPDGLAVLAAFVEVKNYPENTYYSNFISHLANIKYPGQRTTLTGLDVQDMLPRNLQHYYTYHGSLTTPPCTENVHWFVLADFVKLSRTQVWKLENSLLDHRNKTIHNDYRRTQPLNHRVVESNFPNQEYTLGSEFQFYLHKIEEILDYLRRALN
- experiment_notes: Thermal shift assay (TSA), recombinant CAVI
- condition_set: 37 °C, pH 7.0, observed (not intrinsic)
Each item that follows carries a reported Kd.
Express the result in µM but write the number alone.

Known results for compounds:
compound: NS(=O)(=O)c1c(F)c(F)c(S(=O)(=O)CCC(=O)Nc2ccc3c(c2)C(=O)OC32c3ccc(O)cc3Oc3cc(O)ccc32)c(NC2CCCCCCC2)c1F
Kd, µM: 0.33
//
compound: NS(=O)(=O)c1c(F)c(F)c(S(=O)(=O)CCC(=O)NCCCC(=O)Nc2ccc3c(c2)C(=O)OC32c3ccc(O)cc3Oc3cc(O)ccc32)c(NC2CCCCCCC2)c1F
Kd, µM: 0.25
//
compound: NS(=O)(=O)c1c(F)c(F)c(S(=O)(=O)CCC(=O)O)c(NC2CCCCCCC2)c1F
Kd, µM: 0.14
//
compound: NS(=O)(=O)c1ccc(NC(=O)Nc2ccc(F)cc2)cc1 [SLC-0111, reference compound]
Kd, µM: 10

// switching to the query compound
Incoming: Value lookup for Kd; key = NS(=O)(=O)c1c(F)c(F)c(S(=O)(=O)CCC(=O)Nc2ccc3c(c2)C(=O)OC32c3ccc(O)cc3Oc3cc(O)ccc32)c(F)c1F
Outgoing: 0.14
